B1: PhoQ; a variant is named by its letters at X, in order, P23837 (parent)
chain: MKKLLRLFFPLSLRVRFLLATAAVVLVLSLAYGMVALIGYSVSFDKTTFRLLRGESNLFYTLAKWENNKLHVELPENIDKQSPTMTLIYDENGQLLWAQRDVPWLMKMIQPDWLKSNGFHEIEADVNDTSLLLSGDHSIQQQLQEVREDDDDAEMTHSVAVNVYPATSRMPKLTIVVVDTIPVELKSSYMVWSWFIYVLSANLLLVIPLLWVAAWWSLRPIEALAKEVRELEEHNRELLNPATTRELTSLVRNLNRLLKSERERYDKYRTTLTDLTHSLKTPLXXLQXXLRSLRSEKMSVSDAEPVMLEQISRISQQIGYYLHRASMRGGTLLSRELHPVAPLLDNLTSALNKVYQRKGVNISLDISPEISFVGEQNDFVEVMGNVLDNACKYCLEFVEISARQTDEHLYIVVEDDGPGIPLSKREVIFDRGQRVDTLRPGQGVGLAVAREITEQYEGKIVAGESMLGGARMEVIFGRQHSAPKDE

Variants of: B1
Experiment: enrichment ratio after two sorts for PhoP signalling (ratio (wild type AVST 3.29)); higher = more functional
Details: with PhoP (E. coli)
In all, about 140,000 sequences were measured (“enrichment ratio after two sorts for PhoP signalling”: median about 0, highest 2% from about 11 on). Many of the other results were omitted from the sample, so the highest values are more common in it than they were.
Recorded Endpoint: enrichment ratio

# count of solved cases: 3
| Mutation Name | enrichment ratio |
| --- | --- |
| GWLL | ≤ 0.25 |
| HSMW | ≤ 0.25 |
| ALMD | ≤ 0.25 |

Below are 3 variants. Give each one its enrichment ratio.
1. LKTQ
2. ISAH
3. AVWR

1: ≤ 0.25; 2: ≤ 0.25; 3: ≤ 0.25

These data points were gathered from a collection of fitness landscapes (doi:10.1126/science.1257360).
